Values were extracted from the supplement of paper PMC9112550.

Field: shrunken log2 fold change. Provide a value for each of the sequences that follow.
test system: Escherichia coli TOP10; assay: shrunken log2 fold change of peptide-encoding DNA abundance (4.5 h post-induction vs induction); higher = less antimicrobial activity (less host growth inhibition); conditions: time post-induction: 4.5 h; library: site-saturation at positions 5, 18, 19, 20;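 further: peptides expressed intracellularly from a pBAD plasmid library in pooled LB shake-flask culture, induced with 0.3% L-arabinose, DNA abundance read by NGS, three biological replicates, DESeq2 with apeglm shrinkage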
Numbers only.

Input: Give the reported shrunken log2 fold change for this sequence. RRIRMRPPRLPRPRPRPQRIPRP
Output: -0.0462

Input: Return shrunken log2 fold change (reported value) for this sequence: RRIRDRPPRLPRPRPRPEDGPRP
Output: 0.316

Input: Report shrunken log2 fold change, nothing else, for this sequence: RRIRIRPPRLPRPRPRPAMQPRP
Output: 0.0843

Input: For RRIRIRPPRLPRPRPRPVMPPRP , write its shrunken log2 fold change.
Output: -0.142

Could you report shrunken log2 fold change for every entry in the following list?
1. RRIRARPPRLPRPRPRPHAQPRP
2. RRIRHRPPRLPRPRPRPAGDPRP
3. RRIRVRPPRLPRPRPRPWTRPRP
4. RRIRDRPPRLPRPRPRPRVTPRP

Output:
1. 0.122
2. 0.309
3. -0.0486
4. -0.0173

List shrunken log2 fold change for every entry below, keeping the order given.
1. RRIRLRPPRLPRPRPRPKQVPRP
2. RRIRARPPRLPRPRPRPILKPRP
3. RRIRKRPPRLPRPRPRPYGYPRP
4. RRIRFRPPRLPRPRPRPLRCPRP

Output:
1: -0.0171; 2: 0.221; 3: -0.0282; 4: 0.0723

# return shrunken log2 fold change for each item in the list
1. RRIRVRPPRLPRPRPRPIPWPRP
2. RRIRIRPPRLPRPRPRPSSNPRP
3. RRIRTRPPRLPRPRPRPMNSPRP

Output:
[-0.232, -0.313, -0.191]
